tgt: Serine/threonine-protein kinase Chk1 (Homo sapiens, UniProt O14757)
measurement_kind: pIC50
Recall that pIC50 is obtained by taking minus log10 of the concentration measured in molar.

O=C1NC(=O)c2c1c1c3cnccc3[nH]c1c1[nH]c3ccc(O)cc3c21	7.57

Turning now to a further compound:
## Task Give the reported pIC50 for O=C1NC(=O)c2c1c1c3cnccc3[nH]c1c1[nH]c3ccc(OCc4ccccc4)cc3c21 (system: Serine/threonine-protein kinase Chk1 (Homo sapiens, UniProt O14757)).
## Result 5.88

----------
tgt: Serine/threonine-protein kinase Chk1 (Homo sapiens) (UniProt O14757)
protocol: Inhibition of human Chk1 expressed in sf9-baculovirus system at 10 uM
measurement_kind: inhibition (%)
A number alone suffices; assume %.

CC(=O)OC[C@H]1O[C@@H](n2c3ccccc3c3c4c(c5c6c[n+](Cc7ccccc7)ccc6[nH]c5c32)C(=O)N(C)C4=O)[C@H](OC(C)=O)[C@@H](OC(C)=O)[C@@H]1OC(C)=O	46.5
CN1C(=O)c2c(c3c4ccccc4n([C@@H]4O[C@H](COCc5ccccc5)[C@@H](OCc5ccccc5)[C@H](OCc5ccccc5)[C@H]4OCc4ccccc4)c3c3[nH]c4ccncc4c23)C1=O	49
CN1C(=O)c2c(c3c4cc5c(cc4[nH]c3c3[nH]c4ccncc4c23)OCO5)C1=O	26.7

Continue with the next compound.
## Task Entry under review: CN(C)CCN1C(=O)c2c(c3c4cnccc4[nH]c3c3[nH]c4ccccc4c23)C1=O . Reported inhibition?
## Result 49.4

----------
tgt: Serine/threonine-protein kinase Chk1 (Homo sapiens) (UniProt O14757)
Sequence (whole entry): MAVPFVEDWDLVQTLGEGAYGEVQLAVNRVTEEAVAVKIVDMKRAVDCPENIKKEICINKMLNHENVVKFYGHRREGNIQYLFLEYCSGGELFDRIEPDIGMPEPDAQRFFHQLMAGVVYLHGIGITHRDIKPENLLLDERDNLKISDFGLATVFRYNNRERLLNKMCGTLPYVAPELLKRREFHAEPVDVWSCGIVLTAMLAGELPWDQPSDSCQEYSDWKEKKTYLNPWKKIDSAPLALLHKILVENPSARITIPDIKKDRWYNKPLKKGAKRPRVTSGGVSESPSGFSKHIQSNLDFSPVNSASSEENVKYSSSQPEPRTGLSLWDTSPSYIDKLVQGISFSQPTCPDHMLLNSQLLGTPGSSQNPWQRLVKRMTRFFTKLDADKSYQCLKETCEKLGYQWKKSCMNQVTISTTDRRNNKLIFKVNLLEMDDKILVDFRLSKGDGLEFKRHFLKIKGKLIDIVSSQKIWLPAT
protocol: Inhibition of human Chk1 expressed in sf9-baculovirus system at 10 uM
measurement_kind: inhibition (%)
The reply should contain only the number, in %.

Field: example entries. Status: answers known.
CN1C(=O)c2c(c3c4ccccc4n([C@@H]4O[C@H](CO)[C@@H](O)[C@H](O)[C@H]4O)c3c3[nH]c4cc[n+](Cc5ccccc5)cc4c23)C1=O	51.4
CN(C)CCN1C(=O)c2c(c3c4cc(O)ccc4[nH]c3c3[nH]c4ccncc4c23)C1=O	48.9
CN(C)CCN1C(=O)c2c(c3c4cc5c(cc4[nH]c3c3[nH]c4ccncc4c23)OCO5)C1=O	6.7

Please turn your attention to the following entry.
## Task Which inhibition is reported for this molecule? CN1C(=O)c2c(c3c4cnccc4[nH]c3c3[nH]c4cc(O)ccc4c23)C1=O
## Result 66.6
